meta.source: patent US20110105543A1

ENDPOINT: melting point

Examples with their reported melting point follow.
### Prompt Entry under review: Nc1c(-c2ccc3[nH]ccc3c2)cncc1-c1ccc(C(F)(F)F)cc1F . Reported melting point?
### Response 103 to 106 °C

### Prompt Entry under review: COc1ccc(-c2nc(C)nc(-c3ccc(C(F)(F)F)cc3F)c2N)cc1 . Reported melting point?
### Response 129.2 to 130.6 °C

### Prompt Entry under review: COc1ccc(-c2nc(N)nc(-c3ccc(C(F)(F)F)cc3F)c2N)cc1 . Reported melting point?
### Response 125.8 to 127.1 °C

### Prompt Entry under review: COc1ccc(-c2ncnc(-c3ccc(C(F)(F)F)cc3F)c2N)c(O)c1 . Reported melting point?
### Response 150 to 151.5 °C

### Prompt Entry under review: COc1ccc(-c2nc(C)nc(-c3ccc(C(F)(F)F)cc3F)c2N)cc1Cl . Reported melting point?
### Response 104.5 to 105.2 °C

### Prompt Entry under review: Nc1c(-c2ccc(O)cc2)ncnc1-c1ccc(Cl)cc1Cl . Reported melting point?
### Response 97.3 to 98.2 °C

---
### Prompt Entry under review: Nc1c(-c2ccc(O)cc2)cncc1-c1ccc(C(F)(F)F)cc1F . Reported melting point?
### Response 133.6 to 134.8 °C

### Prompt Entry under review: Nc1c(-c2ccc(O)cc2)cc(F)cc1-c1ccc(C(F)(F)F)cc1F . Reported melting point?
### Response 97.8 to 98.9 °C

### Prompt Entry under review: Nc1c(-c2ccc(O)cc2)cnnc1-c1ccc(C(F)(F)F)cc1F . Reported melting point?
### Response 251 to 252.2 °C

* * *

ENDPOINT: melting point

Examples with their reported melting point follow.
### Prompt Entry under review: COc1ccc(-c2cncc(-c3ccc(C(F)(F)F)cc3F)c2N)cc1 . Reported melting point?
### Response 169.5 to 170.3 °C

### Prompt Entry under review: Nc1c(-c2ccc(S(N)(=O)=O)cc2)cc(F)cc1-c1ccc(C(F)(F)F)cc1F . Reported melting point?
### Response 189.4 to 191.2 °C

### Prompt Entry under review: COc1ccc(-c2cnnc(-c3ccc(C(F)(F)F)cc3F)c2N)cc1 . Reported melting point?
### Response 215.3 to 216.2 °C

Proceed to the following item.
### Prompt Entry under review: Nc1c(-c2ccc3[nH]ccc3c2)ncnc1-c1ccc(C(F)(F)F)cc1F . Reported melting point?
### Response 216.1 to 217.8 °C

* * *

ENDPOINT: melting point

### Prompt Entry under review: COc1ccc(-c2ncnc(-c3ccc(Cl)cc3Cl)c2N)cc1 [Compound 1] . Reported melting point?
### Response 141.3 to 142.1 °C

### Prompt Entry under review: COc1ccc(-c2cc(F)cc(-c3ccc(C(F)(F)F)cc3F)c2N)cc1 [Compound 5] . Reported melting point?
### Response 85.2 to 86.3 °C

### Prompt Entry under review: COc1ccc(-c2nc(C)nc(-c3ccc(C(F)(F)F)cc3F)c2[N+](=O)[O-])cc1 [Compound 13] . Reported melting point?
### Response 100.8 to 101.8 °C

### Prompt Entry under review: COc1ccc(-c2ncnc(-c3ccc(C(F)(F)F)cc3F)c2N)c(OC)c1 [Compound 7] . Reported melting point?
### Response 191.5 to 192.8 °C

### Prompt Entry under review: Cc1nc(-c2ccc3c(c2)OCO3)c(N)c(-c2ccc(C(F)(F)F)cc2F)n1 [Compound 14] . Reported melting point?
### Response 162.5 to 163.3 °C

### Prompt Entry under review: Nc1nc(-c2ccc(O)cc2)c(N)c(-c2ccc(C(F)(F)F)cc2F)n1 [Compound 18] . Reported melting point?
### Response 226.3 to 227.5 °C

---
### Prompt Entry under review: Nc1c(-c2ccc(S(N)(=O)=O)cc2)ncnc1-c1ccc(C(F)(F)F)cc1F [Compound 11] . Reported melting point?
### Response 174.8 to 176.1 °C

### Prompt Entry under review: Cc1nc(-c2ccc(O)cc2)c(N)c(-c2ccc(C(F)(F)F)cc2F)n1 [Compound 16] . Reported melting point?
### Response 175.4 to 176.9 °C
